Biological target: Nonstructural protein 3 (Zika virus, UniProt A0A024AXB9)
Sequence (A0A024AXB9 whole entry): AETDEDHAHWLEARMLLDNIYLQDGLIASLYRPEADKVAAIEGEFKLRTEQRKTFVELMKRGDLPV
Assay: Functional biochemical assay to identify treatments for viral infectious disease that targets Zika NS2B-NS3 protease. Utilizing a direct enzyme activity measurement method, reading the fluorescence intensity is used to characterize the relative potency of inhibitors as IC50.
Set-up: species or system PRVABC59
readout type: IC50

See these solved cases before continuing.
Cc1ccc(CNC(=O)[C@@H](NC(=O)OCc2ccccc2)c2ccc(OCc3ccccc3)cc2)cn1
> 99.5 µM
CCNCc1ccc(NC(=O)c2cc(Cl)cc3[nH]ncc23)cc1
11.5 µM
Cc1c(C(=O)Nc2cccc(CS(C)(=O)=O)c2)cc(C2CC2)n1C
> 25 µM
CN(C)Cc1cccc(-c2ccc(S(=O)(=O)Nc3ccc(Cl)cc3C(=O)O)cc2)c1
> 99.5 µM
COc1ccc(CN(C)C)cc1NC(=O)[C@@H](NC(=O)OCc1ccccc1)c1ccc(OCc2ccccc2)cc1
> 99.5 µM
O=C(Nc1cc(-c2cccnc2)ccn1)c1ccc(C2CC2)cc1
> 25 µM
NCCc1csc2cc(C(=O)Nc3ccc4c(c3)CNC4)ccc12
0.144 µM
O=C(O)c1cc(Cl)ccc1NS(=O)(=O)c1ccc(-c2ccncc2)cc1
> 99.5 µM

Measured IC50 of Fc1cc(CNc2ccc3c(c2)CNC3)c2cc[nH]c2c1 : 9.31 µM

Measured IC50 of NCc1cccc(NC(=O)CN2CCN(C(=O)OCc3ccccc3)CC2)c1 : > 99.5 µM

Measured IC50 of Cc1c(C(=O)Nc2cccc(-c3ccccc3)c2)cc(C2CC2)n1C : > 25 µM

Measured IC50 of Cn1ccnc(N2CCC(NS(=O)(=O)c3ccc(Cl)cc3C(=O)O)CC2)c1=O : > 99.5 µM

Measured IC50 of O=C(Nc1ccc2c(c1)CNC2)c1cccc2c1OCCN2 : 8.24 µM

Measured IC50 of CC(C)(C)OC(=O)NCc1cccc(NC(=O)C[C@H](N)c2ccc(OCc3ccccc3)c(Br)c2)c1 : > 99.5 µM

Measured IC50 of O=C1Cc2c(cccc2C(=O)N[C@H]2CCc3ncsc3C2)N1 : > 25 µM

Measured IC50 of Fc1cc(CNc2ccc3c(n2)CNC3)c2cn[nH]c2c1 : > 25 µM

Measured IC50 of O=C(c1cc(Cl)cc2[nH]ncc12)N1CCC(C2CCNCC2)CC1 : > 99.5 µM

Measured IC50 of Clc1ccc2ncn(Cc3ccc4c(c3)CNC4)c2c1 : > 99.5 µM

Measured IC50 of COc1ccc(S(=O)(=O)Nc2cc(F)c(Cl)cc2C(=O)NCC(C)C)cc1 : > 99.5 µM

Measured IC50 of C[C@@H]1c2cccnc2CCN1Cc1cccc(CN(C)C)c1 : > 99.5 µM

Measured IC50 of Cc1cnc(Oc2ccc(S(=O)(=O)Nc3ccc(Cl)cc3C(=O)O)cc2)cn1 : > 99.5 µM

Measured IC50 of CS(=O)(=O)c1cc(CN)cc(NC(=O)c2cc(Cl)cc(NC(=O)OCc3ccccc3)c2)c1 : 23.3 µM

Measured IC50 of O=C(O)[C@H]1CCCC[C@@H]1NS(=O)(=O)c1ccc(Oc2ccccc2Cl)cc1 : > 99.5 µM

Measured IC50 of CN1[C@@H]2CCC[C@H]1C[C@@H](NC(=O)C1CCN(c3ccc(C=O)cc3)CC1)C2 : > 99.9 µM

Measured IC50 of CCn1c(=O)c(N2CC[C@H]3[C@H]2[C@H]3C(F)(F)F)nc2ccccc21 : > 99.5 µM

Measured IC50 of CSc1cc(Cl)cc(C(=O)Nc2cccc(-n3nn[nH]c3=O)c2)c1 : > 99.5 µM

Measured IC50 of O=C1CCc2c(cccc2C(=O)Nc2ccc3c(c2)CNC3)N1 : 0.96 µM

Measured IC50 of Cc1c(C(=O)Nc2cccc(-c3ccc(=O)[nH]n3)c2)cc(C2CC2)n1C : > 25 µM

Measured IC50 of Cc1cccc(N2CCC(NS(=O)(=O)c3ccc(Cl)cc3C(=O)O)CC2)n1 : > 99.5 µM

Measured IC50 of O=C(O)c1cc(Cl)ccc1S(=O)(=O)NC1CCN(Cc2ccccn2)CC1 : > 99.5 µM
